Data origin: ChEMBL document CHEMBL1961873

target_desc: Tyrosine-protein kinase Tec (Homo sapiens)
Sequence (whole entry): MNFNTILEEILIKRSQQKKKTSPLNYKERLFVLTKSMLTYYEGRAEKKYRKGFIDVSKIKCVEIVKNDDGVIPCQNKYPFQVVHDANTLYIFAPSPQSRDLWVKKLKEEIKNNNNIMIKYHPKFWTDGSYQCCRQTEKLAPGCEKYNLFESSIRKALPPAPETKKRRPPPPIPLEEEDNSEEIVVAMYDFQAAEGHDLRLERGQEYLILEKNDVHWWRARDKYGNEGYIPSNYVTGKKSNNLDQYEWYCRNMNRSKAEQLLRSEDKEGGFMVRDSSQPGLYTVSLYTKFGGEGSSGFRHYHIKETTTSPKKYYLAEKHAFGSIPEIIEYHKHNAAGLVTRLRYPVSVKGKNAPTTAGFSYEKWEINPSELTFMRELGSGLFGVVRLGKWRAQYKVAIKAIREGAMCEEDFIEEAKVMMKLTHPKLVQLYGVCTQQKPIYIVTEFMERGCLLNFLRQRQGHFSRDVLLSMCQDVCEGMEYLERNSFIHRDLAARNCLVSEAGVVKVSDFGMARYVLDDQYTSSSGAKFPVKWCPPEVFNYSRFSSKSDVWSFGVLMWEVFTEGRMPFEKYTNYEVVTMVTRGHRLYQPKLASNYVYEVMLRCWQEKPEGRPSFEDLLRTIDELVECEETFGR
condition_set: at 0.1 µM
Description: GSK_PKIS: TEC mean inhibition at 0.1 uM [Nanosyn]
Exercise: state measured inhibition for each of the compounds provided.
Unit % implied. Number only.

Please list inhibition recorded for the compound [O-][S+]1CCN(Cc2ccc(-c3ccc4ncnc(Nc5ccc(OCc6ccccc6)c(F)c5)c4c3)o2)CC1
3.42

Supply measured inhibition of COc1cc2ncn(-c3cc(OCc4ccccc4C(F)(F)F)c(C(N)=O)s3)c2cc1OC in your reply.
-1.86

Give the measured inhibition for CS(=O)(=O)Nc1ccc(N/C=C2\C(=O)Nc3ccccc32)cc1
-2.97

Supply inhibition value. Item: CC(C)=Cc1cccc2c1/C(=N/Nc1ccc(S(N)(=O)=O)cc1)C(=O)N2
2.44

Please report inhibition for the following compound: CS(=O)(=O)CCN(CC#N)Cc1ccc(-c2ccc3ncnc(Nc4ccc(OCc5cccc(F)c5)c(Cl)c4)c3c2)o1
-2.12
